# experimental_system: Tyrosyl-tRNA synthetase, putative (Trypanosoma cruzi (strain CL Brener)) (UniProt Q4DSP6)
# Sequence (Q4DSP6 as listed by the source): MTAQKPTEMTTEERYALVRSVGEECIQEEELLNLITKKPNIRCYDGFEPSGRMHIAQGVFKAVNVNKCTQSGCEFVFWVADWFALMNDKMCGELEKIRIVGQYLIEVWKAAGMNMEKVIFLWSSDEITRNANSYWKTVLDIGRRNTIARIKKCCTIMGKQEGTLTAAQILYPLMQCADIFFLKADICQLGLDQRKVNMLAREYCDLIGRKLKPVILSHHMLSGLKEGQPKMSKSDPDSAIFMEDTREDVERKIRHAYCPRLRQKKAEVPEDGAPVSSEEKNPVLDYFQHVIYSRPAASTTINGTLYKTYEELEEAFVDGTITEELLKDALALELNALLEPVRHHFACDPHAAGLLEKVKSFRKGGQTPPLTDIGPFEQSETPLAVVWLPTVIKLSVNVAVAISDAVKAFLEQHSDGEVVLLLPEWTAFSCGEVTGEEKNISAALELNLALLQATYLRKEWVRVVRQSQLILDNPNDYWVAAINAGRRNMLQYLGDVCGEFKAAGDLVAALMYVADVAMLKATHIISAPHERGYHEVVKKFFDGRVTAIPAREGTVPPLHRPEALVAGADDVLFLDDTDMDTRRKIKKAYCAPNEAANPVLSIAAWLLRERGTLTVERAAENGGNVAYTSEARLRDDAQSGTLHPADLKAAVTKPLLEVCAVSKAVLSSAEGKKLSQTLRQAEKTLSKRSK
# protocol: Trypanosoma cruzi tyrosyl tRNA synthetase (TcYRS) _High Tyrosine SOP
# Type: functional
# Parameters: scale not given: in the data most compounds retested in dose-response had high values
# test_parameters: 30 µM
Catalogue of Percent Effect readings, one per entry.
Give a bare numeral; the unit % is implied.

- molecule: "Cn1nnc2c1C(COCc1ccccn1)CN(C(=O)c1cccs1)C2 (stereo unspecified)"
  experimental_system: "Tyrosyl-tRNA synthetase, putative (Trypanosoma cruzi (strain CL Brener)) (UniProt Q4DSP6)"
  Percent Effect [%]: 6.25

Please give measured Percent Effect of the following entry: N#Cc1cccc(S(=O)(=O)NC2CCN(Cc3ccccc3)C2=O)c1 (stereo unspecified)
3.45

Give me measured Percent Effect, please, for this molecule: COc1c(C)cnc(CN2CCC(N(C)C(C)C(N)=O)CC2)c1C (stereo unspecified)
8.74

###

# experimental_system: Arginase-2, mitochondrial (Homo sapiens) (UniProt P78540)
# Sequence (P78540 whole entry): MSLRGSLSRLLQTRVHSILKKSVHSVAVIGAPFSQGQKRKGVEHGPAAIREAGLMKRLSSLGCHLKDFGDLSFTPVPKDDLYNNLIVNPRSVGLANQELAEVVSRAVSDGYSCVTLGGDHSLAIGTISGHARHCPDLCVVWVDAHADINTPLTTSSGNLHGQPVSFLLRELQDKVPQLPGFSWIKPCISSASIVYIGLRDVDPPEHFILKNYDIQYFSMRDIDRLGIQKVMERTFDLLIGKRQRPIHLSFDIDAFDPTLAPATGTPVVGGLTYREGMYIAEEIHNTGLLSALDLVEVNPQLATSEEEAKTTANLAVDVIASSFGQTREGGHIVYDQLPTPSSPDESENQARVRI
# protocol: in vitro enzyme assay to detect the production of urea directly proportional to the activity of Arginase II
# Format: functional
# Design: scale not given: in the data most compounds retested in dose-response had high values
# test_parameters: 33.3 µM
readout_type: Percent Effect (%)
I only need the number, in %, no unit after it.

Record excerpt, results attached:
- compound: "c1cnc(NCc2noc3c2CN(C2CCOCC2)CC3)nc1"
  Percent Effect / %: -46.8
- compound: "O=C(Cn1cc(I)cn1)Nc1cccnc1"
  Percent Effect / %: -10.7
- compound: "Cc1cc(C)n(CC(=O)N2CCC(NS(C)(=O)=O)CC2)n1"
  Percent Effect / %: -2.3
- compound: "CNc1cc(C2CCCN2Cc2ccccc2C(=O)O)ccn1 (stereo not given)"
  Percent Effect / %: -0.696

Moving on to another compound below.
Tell me measured Percent Effect for CSc1ccc(CNC(c2ccccc2)c2nccn2C)cc1 (stereo not given) please.
-2.77

###

# experimental_system: Arginase-2, mitochondrial (Homo sapiens) (UniProt P78540)
# protocol: in vitro enzyme assay to detect the production of urea directly proportional to the activity of Arginase II
# Type: functional
# Design: scale not given: in the data most compounds retested in dose-response had high values
# test_parameters: 33.3 µM
readout_type: Percent Effect

Use these answered entries as a reference point.
- molecule: "CC(C)CCn1c(=O)nc2n1C(=O)N(c1ccc(F)cc1)C2"
  measurement: "-10.7%"
- molecule: "CCc1nc(NS(=O)(=O)c2ccc(F)cc2C)no1"
  measurement: "-0.521%"
- molecule: "Cc1nccn1CCC1CCCCN1Cc1ccncc1 (stereo not given)"
  measurement: "0.521%"
- molecule: "Cc1cccc(NC2CCN(C(=O)Nc3cccc4[nH]ccc34)CC2)n1"
  measurement: "-7.22%"
- molecule: "OC1(Cn2ccc3ncccc32)CCN(Cc2ccccn2)CC1"
  measurement: "-5.34%"

Report measured Percent Effect; entry is `CCOc1nc2cccnc2n(CC(=O)NCCOC)c1=O`
-1.94%

Please indicate Percent Effect recorded for `COC(=O)N1CCc2ccc(NC(=O)c3cn(C)nn3)cc2C1`
-49.7%

Dear colleague, please send me the reported Percent Effect for CC(C)c1noc(C(C)N2CCN(CCN3CCCC3=O)CC2)n1 (stereo not given) when you can.
1.6%

Look up and state reported Percent Effect for `CC(C)CCOCCNC(=O)Nc1cc(C(F)(F)F)c[nH]c1=O`
-0.924%

Please list Percent Effect recorded for the molecule O=C(c1cnc(-c2cccs2)s1)N1CCCN2CCCC2C1 (stereo not given)
-16%

Read the entry `Cn1cc(-c2csc(N3CCN(C(=O)OC(C)(C)C)CC3)n2)cn1` and write its reported Percent Effect.
30.5%

Consider the molecule `CCn1ccnc1CN1C[C@@H](CN2CCCC2)[C@@H](CO)C1` and give its recorded Percent Effect.
-1.91%

Provide only the value of recorded Percent Effect for `O=C(NCCNc1ncccn1)N1CCSCC1`
-5.21%

Give Percent Effect for `CCCNC(=O)N1CCC(Oc2cc(C)ccc2F)(C(=O)O)CC1`
24.3%

Return the recorded Percent Effect value; entry: `CCCn1nc2c(cc1=O)CN(CCS(C)(=O)=O)CC2`
-6.01%

Tell me Percent Effect reported for `Cc1nn(C)cc1C(=O)Nc1cccc(CN2CCC(CO)CC2)c1`
26%

Report Percent Effect for `O=C(Cc1ccc(F)cc1)N1CCn2cc(Cn3cccn3)nc2C1`
6.69%

// fetch Percent Effect given entry `CCN(C)c1ccc(C(=O)N(CCOC)Cc2ccccn2)cc1`
38.5%

Assign Percent Effect to the following record: `O=C1[C@H]2CN(CC3CC3)C[C@H]2CN1Cc1cccc(F)c1`
-0.955%

Please give measured Percent Effect of the following entry: COCCCn1c(CN2CCCC(O)C2)cnc1S(=O)(=O)C1CCCC1 (stereo not given)
-85.5%
